conditions: in methanol, 313.15 K
Recorded endpoint: solubility (mole fraction)
Give bare numbers.

Field solubility (mole fraction) (entry Cn1nnc2c(C(N)=O)ncn2c1=O ) reads 0.00072

* * *

conditions: in ethanol, 273.15 K
Recorded endpoint: solubility (mole fraction)
One number for each entry.

Field solubility (mole fraction) (entry Cn1nnc2c(C(N)=O)ncn2c1=O ) reads 6.58e-05

* * *

settings: in ethanol, 318.15 K
Recorded endpoint: solubility (mole fraction)
Numbers only.

Field solubility (mole fraction) (entry Cn1nnc2c(C(N)=O)ncn2c1=O ) reads 0.000313

* * *

details: in ethanol, 298.15 K
Recorded endpoint: solubility (mole fraction)
One number for each entry.

Field solubility (mole fraction) (entry Cn1nnc2c(C(N)=O)ncn2c1=O ) reads 0.00016

* * *

settings: in n-propanol, 288.15 K
Recorded endpoint: solubility (mole fraction)

Field solubility (mole fraction) (entry Cn1nnc2c(C(N)=O)ncn2c1=O ) reads 8.65e-05

* * *

conditions: in ethyl acetate, 298.15 K
Recorded endpoint: solubility (mole fraction)

Field solubility (mole fraction) (entry Cn1nnc2c(C(N)=O)ncn2c1=O ) reads 0.000206

* * *

settings: in methanol, 273.15 K
Recorded endpoint: solubility (mole fraction)

Field solubility (mole fraction) (entry Cn1nnc2c(C(N)=O)ncn2c1=O ) reads 0.000174

* * *

details: in ethyl acetate, 278.15 K
Recorded endpoint: solubility (mole fraction)
Answers are plain numbers.

Field solubility (mole fraction) (entry Cn1nnc2c(C(N)=O)ncn2c1=O ) reads 9.96e-05

* * *

details: in ethyl acetate, 283.15 K
Recorded endpoint: solubility (mole fraction)
Give bare numbers.

Field solubility (mole fraction) (entry Cn1nnc2c(C(N)=O)ncn2c1=O ) reads 0.00012

* * *

conditions: in n-propanol, 278.15 K
Recorded endpoint: solubility (mole fraction)
Numbers only.

Field solubility (mole fraction) (entry Cn1nnc2c(C(N)=O)ncn2c1=O ) reads 5.53e-05

* * *

details: in isopropanol, 273.15 K
Recorded endpoint: solubility (mole fraction)

Field solubility (mole fraction) (entry Cn1nnc2c(C(N)=O)ncn2c1=O ) reads 2.2e-05

* * *

conditions: in isopropanol, 288.15 K
Recorded endpoint: solubility (mole fraction)

Field solubility (mole fraction) (entry Cn1nnc2c(C(N)=O)ncn2c1=O ) reads 4.26e-05

* * *

details: in isopropanol, 303.15 K
Recorded endpoint: solubility (mole fraction)
Answers are plain numbers.

Field solubility (mole fraction) (entry Cn1nnc2c(C(N)=O)ncn2c1=O ) reads 7.8e-05

* * *

conditions: in ethanol, 283.15 K
Recorded endpoint: solubility (mole fraction)
Answers are plain numbers.

Field solubility (mole fraction) (entry Cn1nnc2c(C(N)=O)ncn2c1=O ) reads 9.48e-05

* * *

conditions: in methanol, 318.15 K
Recorded endpoint: solubility (mole fraction)
Numbers only.

Field solubility (mole fraction) (entry Cn1nnc2c(C(N)=O)ncn2c1=O ) reads 0.000838

* * *

settings: in isopropanol, 313.15 K
Recorded endpoint: solubility (mole fraction)

Field solubility (mole fraction) (entry Cn1nnc2c(C(N)=O)ncn2c1=O ) reads 0.000116

* * *

conditions: in methanol, 308.15 K
Recorded endpoint: solubility (mole fraction)
Answers are plain numbers.

Field solubility (mole fraction) (entry Cn1nnc2c(C(N)=O)ncn2c1=O ) reads 0.000621

* * *

details: in ethyl acetate, 308.15 K
Recorded endpoint: solubility (mole fraction)
Answers are plain numbers.

Field solubility (mole fraction) (entry Cn1nnc2c(C(N)=O)ncn2c1=O ) reads 0.000277

* * *

settings: in isopropanol, 308.15 K
Recorded endpoint: solubility (mole fraction)
Numbers only.

Field solubility (mole fraction) (entry Cn1nnc2c(C(N)=O)ncn2c1=O ) reads 9.41e-05

* * *

details: in ethanol, 308.15 K
Recorded endpoint: solubility (mole fraction)
Numbers only.

Field solubility (mole fraction) (entry Cn1nnc2c(C(N)=O)ncn2c1=O ) reads 0.000225

* * *

conditions: in methanol, 288.15 K
Recorded endpoint: solubility (mole fraction)
Numbers only.

Field solubility (mole fraction) (entry Cn1nnc2c(C(N)=O)ncn2c1=O ) reads 0.000327

* * *

details: in ethyl acetate, 303.15 K
Recorded endpoint: solubility (mole fraction)
Give bare numbers.

Field solubility (mole fraction) (entry Cn1nnc2c(C(N)=O)ncn2c1=O ) reads 0.000237

* * *

conditions: in n-propanol, 308.15 K
Recorded endpoint: solubility (mole fraction)
One number for each entry.

Field solubility (mole fraction) (entry Cn1nnc2c(C(N)=O)ncn2c1=O ) reads 0.000188

* * *

settings: in ethyl acetate, 318.15 K
Recorded endpoint: solubility (mole fraction)
Numbers only.

Field solubility (mole fraction) (entry Cn1nnc2c(C(N)=O)ncn2c1=O ) reads 0.000371

* * *

details: in n-propanol, 303.15 K
Recorded endpoint: solubility (mole fraction)

Field solubility (mole fraction) (entry Cn1nnc2c(C(N)=O)ncn2c1=O ) reads 0.000157

* * *

settings: in methanol, 293.15 K
Recorded endpoint: solubility (mole fraction)
Answers are plain numbers.

Field solubility (mole fraction) (entry Cn1nnc2c(C(N)=O)ncn2c1=O ) reads 0.00039

* * *

settings: in ethanol, 313.15 K
Recorded endpoint: solubility (mole fraction)
Answers are plain numbers.

Field solubility (mole fraction) (entry Cn1nnc2c(C(N)=O)ncn2c1=O ) reads 0.000269

* * *

settings: in n-propanol, 293.15 K
Recorded endpoint: solubility (mole fraction)
One number for each entry.

Field solubility (mole fraction) (entry Cn1nnc2c(C(N)=O)ncn2c1=O ) reads 0.000107

* * *

conditions: in ethanol, 293.15 K
Recorded endpoint: solubility (mole fraction)
Answers are plain numbers.

Field solubility (mole fraction) (entry Cn1nnc2c(C(N)=O)ncn2c1=O ) reads 0.000136

* * *

details: in methanol, 303.15 K
Recorded endpoint: solubility (mole fraction)
Numbers only.

Field solubility (mole fraction) (entry Cn1nnc2c(C(N)=O)ncn2c1=O ) reads 0.000536

* * *

conditions: in n-propanol, 273.15 K
Recorded endpoint: solubility (mole fraction)
Answers are plain numbers.

Field solubility (mole fraction) (entry Cn1nnc2c(C(N)=O)ncn2c1=O ) reads 4.28e-05
